A collection of molecules and their measured IC50
target: CSF1R (Homo sapiens); assay: Cellular CSF1R inhibition ELISA (p-CSF1R, M-CSF-induced) using THP-1 cells

CNCCn1cc(OCC(F)(F)F)c(C(=O)Nc2ccc(Oc3ccnc4cc(OC)c(OC)cc34)cc2)n1 : ≥ 1 µM

Next item in the queue.
// query Quick check: IC50 on CSF1R (Homo sapiens), item COc1cc2nccc(Oc3ccc(NC(=O)c4nn(C(C)(C)C)cc4OCC(F)(F)F)nc3)c2cc1OC ?
// result < 0.5 µM

---

molecular target: Mer (Homo sapiens, UniProt Q12866); construct: purchased Life Technologies; experiment: LanthaScreen Eu kinase binding assay for Mer; conditions: read-out: Mer kinase binding activity (Kd)
Sequence (Q12866 21-999): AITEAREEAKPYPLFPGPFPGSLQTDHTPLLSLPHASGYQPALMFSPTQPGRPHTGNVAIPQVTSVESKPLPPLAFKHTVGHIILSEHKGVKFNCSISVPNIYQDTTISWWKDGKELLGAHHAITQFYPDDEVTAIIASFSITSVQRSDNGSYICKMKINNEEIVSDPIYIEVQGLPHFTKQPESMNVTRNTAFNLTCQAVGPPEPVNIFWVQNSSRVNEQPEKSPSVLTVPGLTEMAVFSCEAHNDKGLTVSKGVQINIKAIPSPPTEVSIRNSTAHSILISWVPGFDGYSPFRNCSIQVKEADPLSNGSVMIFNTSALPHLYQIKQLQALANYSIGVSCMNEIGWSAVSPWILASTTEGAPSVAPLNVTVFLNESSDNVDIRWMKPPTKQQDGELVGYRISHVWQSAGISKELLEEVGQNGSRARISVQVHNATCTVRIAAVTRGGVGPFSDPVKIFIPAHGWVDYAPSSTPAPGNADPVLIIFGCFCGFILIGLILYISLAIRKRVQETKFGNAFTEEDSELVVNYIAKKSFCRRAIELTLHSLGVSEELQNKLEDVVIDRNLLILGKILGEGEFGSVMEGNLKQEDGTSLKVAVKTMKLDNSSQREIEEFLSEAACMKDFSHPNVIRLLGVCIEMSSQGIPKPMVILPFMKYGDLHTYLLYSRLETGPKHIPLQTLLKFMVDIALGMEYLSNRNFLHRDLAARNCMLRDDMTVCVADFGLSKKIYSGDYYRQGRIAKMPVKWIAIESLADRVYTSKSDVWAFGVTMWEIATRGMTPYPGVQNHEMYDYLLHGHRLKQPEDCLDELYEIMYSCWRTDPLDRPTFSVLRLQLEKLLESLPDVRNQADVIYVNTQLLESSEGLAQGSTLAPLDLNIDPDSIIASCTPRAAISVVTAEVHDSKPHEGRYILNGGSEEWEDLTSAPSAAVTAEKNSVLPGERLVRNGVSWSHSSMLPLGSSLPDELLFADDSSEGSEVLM
parameterMeasured: Kd

# count of solved cases: 5
COc1cc2nccc(Oc3ccc(NC(=O)c4nn(CC(C)O)cc4OC(C)C)nc3)c2cc1OC (stereo not drawn) [Compound 151] : < 100 nM
COc1cc2nccc(Oc3ccc(NC(=O)c4nn(CCOC5CC5)cc4OCC(F)(F)F)cc3)c2cc1OC [Compound 118] : < 100 nM
COc1cc2nccc(Oc3ccc(NC(=O)c4nn(C5CC5)cc4OCCC(F)(F)F)nc3)c2cc1OC [Compound 170] : < 100 nM
COc1cc2nccc(Oc3ccc(NC(=O)c4nn(CC5COC5)cc4OCC(F)(F)F)cc3)c2cc1OC [Compound 101] : < 100 nM
COc1cc2nccc(Oc3ccc(NC(=O)c4nn(CCOC5CC5)cc4OCC(F)(F)F)c(F)c3)c2cc1OC [Compound 115] : < 100 nM

// query So what's the measured Kd for this one? COCCn1cc(OCC(F)(F)F)c(C(=O)Nc2ccc(Oc3ccnc4cc(OC)c(OC)cc34)c(F)c2)n1 [Compound 54]
// result < 100 nM

// query // same read-out, input: COc1cc2nccc(Oc3ccc(NC(=O)c4nn(CC(C)O)cc4OCCF)nc3)c2cc1OC (stereo not drawn) [Compound 152]
// result < 100 nM

---

molecular target: CSF1R (Homo sapiens, UniProt P07333); test: KINOMEscan competition binding assay for CSF1R; design: DNA tag for qPCR (not a peptide); host or cells: E. coli/T7 phage or HEK-293; settings: @ 0.1 uM; read-out: CSF1R kinase binding activity, Range
Sequence (P07333 20-972): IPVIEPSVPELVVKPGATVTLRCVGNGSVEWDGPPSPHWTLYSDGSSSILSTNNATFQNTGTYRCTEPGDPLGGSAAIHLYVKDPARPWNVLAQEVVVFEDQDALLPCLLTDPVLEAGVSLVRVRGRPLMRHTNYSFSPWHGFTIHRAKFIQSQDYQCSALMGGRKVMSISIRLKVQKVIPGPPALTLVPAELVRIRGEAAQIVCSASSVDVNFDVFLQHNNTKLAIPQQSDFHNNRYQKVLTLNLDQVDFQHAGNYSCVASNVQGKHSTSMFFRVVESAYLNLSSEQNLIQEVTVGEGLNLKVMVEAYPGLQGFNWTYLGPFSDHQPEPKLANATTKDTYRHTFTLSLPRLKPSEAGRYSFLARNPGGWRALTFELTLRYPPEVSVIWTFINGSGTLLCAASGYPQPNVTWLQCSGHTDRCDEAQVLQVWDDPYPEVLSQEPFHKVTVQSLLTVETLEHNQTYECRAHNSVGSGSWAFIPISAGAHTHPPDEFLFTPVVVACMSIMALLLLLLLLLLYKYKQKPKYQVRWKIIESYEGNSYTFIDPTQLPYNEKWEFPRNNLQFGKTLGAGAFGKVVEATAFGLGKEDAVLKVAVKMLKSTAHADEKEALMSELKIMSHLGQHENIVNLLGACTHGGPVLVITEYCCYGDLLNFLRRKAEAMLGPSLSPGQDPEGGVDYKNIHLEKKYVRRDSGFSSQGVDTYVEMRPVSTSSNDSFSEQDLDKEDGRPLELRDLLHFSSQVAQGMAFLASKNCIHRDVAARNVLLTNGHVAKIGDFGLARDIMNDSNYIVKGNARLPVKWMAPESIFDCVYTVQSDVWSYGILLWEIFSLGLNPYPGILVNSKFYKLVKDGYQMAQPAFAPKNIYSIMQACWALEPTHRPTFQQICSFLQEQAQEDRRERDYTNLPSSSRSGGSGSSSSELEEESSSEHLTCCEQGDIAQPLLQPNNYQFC
parameterMeasured: inhibition at 0.1 µM

// worked examples, inhibition at 0.1 µM included
COc1cc2nccc(Oc3ccc(NC(=O)c4nn(CC(C)O)cc4OCC(F)(F)F)c(F)c3)c2cc1OC (stereo not drawn) : ≥ 80%
CCCn1cc(OCCC(F)(F)F)c(C(=O)Nc2ccc(Oc3ccnc4cc(OC)c(OC)cc34)cn2)n1 : ≥ 80%
COc1cc2nccc(Oc3ccc(NC(=O)c4nn(CCN)cc4OCC(F)(F)F)cc3F)c2cc1OC : < 50%
COc1cc2nccc(Oc3ccc(NC(=O)c4nn(CC(C)C)cc4OCC(F)(F)F)cc3F)c2cc1OC : 50 to 80%
COc1cc2nccc(Oc3ccc(NC(=O)c4nn(C5CC5)cc4OCC(F)F)nn3)c2cc1OC : ≥ 80%
COc1cc2nccc(Oc3ccc(NC(=O)c4nn(CC5CCN(C)C5)cc4OCC(F)(F)F)nc3)c2cc1OC (stereo not drawn) : ≥ 80%
CNCCn1cc(OCC(F)(F)F)c(C(=O)Nc2ccc(Oc3ccnc4cc(OC)c(OC)cc34)c(C)c2)n1 : < 50%
COc1cc2nccc(Oc3ccc(NC(=O)c4nn(C(C)C)c(C)c4OCC(F)(F)F)nc3)c2cc1OC : ≥ 80%

// query Field request: inhibition at 0.1 µM | item: COc1cc2nccc(Oc3ccc(NC(=O)c4nn(CCC#N)cc4OCC(F)(F)F)nc3)c2cc1OC
// result ≥ 80%

// query Another compound to check: CCCn1cc(NCC(F)(F)F)c(C(=O)Nc2ccc(Oc3ccnc4cc(OC)c(OC)cc34)cn2)n1
// result ≥ 80%

// query Follow-up entry: COc1cc2nccc(Oc3ccc(NC(=O)c4nn(CCOC5CC5)cc4OCC(F)(F)F)cc3F)c2cc1OC
// result ≥ 80%

// query Entry to check: COc1cc2nccc(Oc3ccc(NC(=O)c4nn(C5CC5)cc4OCC4CNC4)nc3)c2cc1OC
// result 50 to 80%

// query Also COc1cc2nccc(Oc3ccc(NC(=O)c4nn(CCOC5CCC5)cc4OCC(F)(F)F)nc3)c2cc1OC ?
// result ≥ 80%

// query Thanks! And COc1cc2nccc(Oc3ccc(NC(=O)c4nn(CCC(F)(F)F)cc4OCC4CCC4)nc3)c2cc1OC ?
// result ≥ 80%

// query Try the compound COc1cc2nccc(Oc3ccc(NC(=O)c4nn(C5COC5)cc4OCC(F)(F)F)nc3)c2cc1OC
// result ≥ 80%

// query Similarly, COc1cc2nccc(Oc3ccc(NC(=O)c4nn(C)cc4OCC(F)(F)F)c(F)c3)c2cc1OC ?
// result ≥ 80%

// query Another compound: COc1cc2nccc(Oc3ccc(NC(=O)c4nn(CC(C)C)cc4OCC(F)(F)F)cc3C)c2cc1OC
// result 50 to 80%
